experiment: MHET released, HPLC; higher = more MHET released; extreme values may be limits of the assay; conditions: PET substrate: cryPow; 70 °C; pH 9.5; 24 h
measured-parameter: MHET released

seq-text	measured-parameter	obs-value
QTNPYARGPNPTAASLEASAGPFTVRSFTVSRPSGYGAGTVYYPTNAGGTVGAIAIVPGYTARQSSIKWWGPRLASHGFVVITIDTNSTFDYPSSRSSQQMAALRQVASLNGDSSSPIYGKVDTARMGVMGHSMGGGASLRSAANNPSLKAAIPQAPWDSQTNFSSVTVPTLIFACENDSIAPVNSHALPIYDSMSRNAKQFLEINGGSHSCANSGNSNQALIGKKGVAWMKRFMDNDTRYSTFACENPNSTAVSDFRTANCS [DuraPETase]	MHET released	0 mM
QDNPYERGPDPTEDSIEAIRGPFSVATERVSSFASGFGGGTIYYPRETDEGTFGAVAVAPGFTASQGSMSWYGERVASHGFIVFTIDTNTRLDAPGQRGRQLLAALDYLVERSDRKVRERLDPNRLAVMGHSMGGGGSLEATVMRPSLKASIPLTPWHLDKTWGQVQVPTFIIGAELDTIAPVSTHAKPFYESLPSSLPKAYMELCGATHFAPNIPNTTIAKYVISWLKRFVDEDTRYSQFLCPNPTDRAICEYRSTCPY [Cut190*SS]	MHET released	0.00359 mM
QTNPYARGPNPTAASLEASAGPFTVRSFTVARPVGYGAGTVYYPTNAGGTVGAIAIVPGYTATQSSINWWGPRLASHGFVVITIDTNSTLDKPESRSSQQMAALRQVASLNGTSSSPIYGKVDTARGGVMGWSMGGGGSLISAANNPSLKAAAVMAPWHSSTNFSSVTVPTLIFACENDRIAPVKEYALPIYDSMSLNAKQFLEICGGSHSCACSGNSNQALIGMKGVAWMKRFMDNDTRYSQFACENPNSTAVCDFRTANCS [HotPETase]	MHET released	0.0221 mM

###

Overview of reported MHET released across a group of sequences:
assay: MHET released, HPLC; higher = more MHET released; extreme values may be limits of the assay; conditions: PET substrate: cryPow; 70 °C; pH 7.5; 24 h

seq-text	MHET released
SNPYQRGPNPTRSALTADGPFSVATYTVSRLSVSGFGGGVIYYPTGTSLTFGGIAMSPGYTADASSLAWLGRRLASHGFVVLVINTNSRFDGPDSRASQLSAALNYLRTSSPSAVRARLDANRLAVAGHSMGGGGTLRIAEQNPSLKAAVPLTPWHTDKTFNTSVPVLIVGAEADTVAPVSQYAIPFYQNLPSTTPKVYVELCNASHIAPNSDNAAISVYTISWMKLWVDNDTRYRQFLCNVNDPALCDFRTNNRHCQ [LCC-A2]	0.748 mM
SNPYQRGPNPTRSALTADGPFSVATYTVSRLSVSGFGGGVIYYPTGTSLTFGGIAMSPGYTADASSLAWLGRRLASHGFVVLVINTNSRFDGPDSRASQLSAALNYLRTSDPSAVRARLDANRLAVAGHSMGGGATLRIAEQNPSLKAAIPLTPWHTQKTFNTSVPVLIVGAEADTVAPVSQHAIPFYQNLPSTTPKVYVELCNASHIAPNSNNAAISVYTISWMKLWVDNDTRYRQFLCNVNDPALCDFRTNNRHCQ [LCC-ICCG DAQI]	0.424 mM
QTNPYARGPDPTAASLEASAGPFTVRSFTVSRPSGYGAGTVYYPTNAGGTVGAIAIVPGYTARQSSIKWWGPRLASHGFVVITIDTNSTLDQPESRSSQQMAALEQVASLNGTSSSPIYGKVDTARMGVMGWSMGGGGSLISACNNPSLKAAVVQAPWHSSTNFSCVTVPTLIFACENDSIAPVNSSALPIYDSMSENAKQFLEICGGSHSCANTGNSDQALIGKKGVAWMKRFMDNDTRYSTFACENPNSTRVCDFRTANCS [Z1-PETase]	0.181 mM
